# System: OVCAR-8 ovarian
# Protocol description: NCI tumour cell line growth inhibition, 48 h
For each entry below, report its TGI value.

Task item: Tell me measured TGI for CCOC(=O)c1c(SC)nc(-c2ccc(Cl)cc2)sc1=N please.
Reply: 80 µM

Task item: Tell me measured TGI for O=S1CCN(Cc2ccc(-c3ccc4ncnc(Nc5ccc(OCc6ccccc6)c(F)c5)c4c3)o2)CC1 please.
Reply: > 25 µM

Task item: Tell me measured TGI for Cc1cc2oc(=O)c(Cl)c(Cl)c2c(C)c1Cl please.
Reply: 10.4 µM

Task item: Tell me measured TGI for CN1C(=O)CN=C(c2ccccc2F)c2cc(N=C=S)ccc21 please.
Reply: > 100 µM

Task item: Tell me measured TGI for Cc1no[n+]([O-])c1/C=N/NS(=O)(=O)c1ccccc1 please.
Reply: > 100 µM

Task item: Tell me measured TGI for O=S1c2ccccc2N=C(c2ccc3ccccc3c2)CC1c1ccccc1F (stereo unspecified) please.
Reply: > 100 µM
